Test system: SNB-19 CNS
Test: NCI-60 one-dose screen, 48 h (100 = growth as untreated, 0 = no growth, -100 = all killed)
Settings: 10 µM
The panel holds about 83,000 compounds, 20% with a hit somewhere; the sample as a whole holds those more often.
Is growth at least 80%? Then rule met. If not, rule not met.

INSERT INTO assay_data (compound, experimental_system, answer_label) VALUES
  ('CN(C)CCNC(=O)c1cccn2c(=O)c3cc4ccccc4cc3nc12', 'SNB-19 CNS', 'rule not met'),
  ('CCN(CC)CCOc1nc2ccccc2c2c1-c1ccc(OC)cc1C2=O', 'SNB-19 CNS', 'rule not met'),
  ('O=C(O)CC(Cl)C(Cl)CC(=O)O (stereo not drawn)', 'SNB-19 CNS', 'rule met'),
  ('O=C(Nc1ccncc1)C(=O)c1cn(S(=O)(=O)c2cc(Cl)cc(Cl)c2)c2ccccc12', 'SNB-19 CNS', 'rule met'),
  ('CCN(CC)CCC(=O)Nc1cccc2c1C(=O)c1c(c(O)c3ccccc3c1O)C2=O', 'SNB-19 CNS', 'rule not met');

Check the entry COc1ccc(Cl)cc1-n1nnc(-c2nc3ccccc3[nH]2)c1N : does growth equal or exceed 80%?
rule not met

Check the entry N=C1c2nc3n(c2C(=O)c2nc4n(c21)CCCC4)CCCC3 : does growth equal or exceed 80%?
rule not met

Check the entry Nc1nc(Nc2ccccc2)n[nH]1 : does growth equal or exceed 80%?
rule met

Check the entry ClC(Cl)(Cl)c1nc2nccnc2[nH]1 : does growth equal or exceed 80%?
rule met

Check the entry c1ccc([I+]c2ccccc2)cc1 : does growth equal or exceed 80%?
rule met

Check the entry Cc1cc2ccccc2nc1-c1ccccc1F : does growth equal or exceed 80%?
rule met
